The values you see were collected from patent US11109593B2.

The entries below are paired with their reported Herbicidal rate (%) Monochoria vaginalis.
tested on: broad leaf weeds (Lindernia pyxidaria and Monochoria vaginalis); test: Test Example 1: herbicidal effect test by treatment of rice paddy soil (immediately after seeding); assay type: in vivo; details: Monochoria vaginalis, 120 g/10a active ingredient, dry weight vs untreated area, 14 days after treatment
Express your answer in %, writing the number without its unit.

Here are 3 compounds together with their reported answers.
| COMPOUND | Herbicidal rate (%) Monochoria vaginalis |
| --- | --- |
| CCC(C)n1oc(=O)c(Cc2ccccc2N(C(=O)C(C)C)S(=O)(=O)C(F)(F)F)c1C (stereo not shown) [Compound 1-330] | 90 |
| Cc1c(Cc2ccccc2N(S(C)(=O)=O)S(=O)(=O)C(F)(F)F)c(=O)on1C(C)c1ccccc1 (stereo not shown) [Compound 1-907] | 90 |
| Cc1c(Cc2ccccc2NS(=O)(=O)C(F)(F)F)c(=O)on1CC(C)(C)C [Compound 1-106] | 90 |

Looking for the measured Herbicidal rate (%) Monochoria vaginalis of Cc1c(Cc2ccccc2N(C(=O)OC(C)C)S(=O)(=O)C(F)(F)F)c(=O)on1C(C)c1ccccc1 (stereo not shown) [Compound 1-653] , can you help? 90

Looking for the measured Herbicidal rate (%) Monochoria vaginalis of C=CCOC(=O)N(c1ccccc1Cc1c(C)n(CC(C)C)oc1=O)S(=O)(=O)C(F)(F)F [Compound 1-707] , can you help? 90

Looking for the measured Herbicidal rate (%) Monochoria vaginalis of CCCOC(=O)N(c1ccccc1Cc1c(C)n(C(C)CC)oc1=O)S(=O)(=O)C(F)(F)F (stereo not shown) [Compound 1-632] , can you help? 90

Looking for the measured Herbicidal rate (%) Monochoria vaginalis of Cc1c(Cc2ccccc2N(C(=O)OCC(C)C)S(=O)(=O)C(F)(F)F)c(=O)on1C(C)(C)C [Compound 1-668] , can you help? 90

Looking for the measured Herbicidal rate (%) Monochoria vaginalis of CSCCn1oc(=O)c(Cc2ccccc2N(C(=O)C(C)C)S(=O)(=O)C(F)(F)F)c1C [Compound 1-336] , can you help? 90

Looking for the measured Herbicidal rate (%) Monochoria vaginalis of CCC(C)n1oc(=O)c(Cc2ccccc2N(C(C)=O)S(=O)(=O)C(F)(F)F)c1C (stereo not shown) [Compound 1-294] , can you help? 90

Looking for the measured Herbicidal rate (%) Monochoria vaginalis of COCC(C)n1oc(=O)c(Cc2ccccc2N(C(=O)C2CC2)S(=O)(=O)C(F)(F)F)c1C (stereo not shown) [Compound 1-412] , can you help? 90

Looking for the measured Herbicidal rate (%) Monochoria vaginalis of Cc1c(Cc2ccccc2N(C(=O)OCc2ccccc2)S(=O)(=O)C(F)(F)F)c(=O)on1C(C)(C)C [Compound 1-781] , can you help? 90
